Where do these numbers come from? They come from patent US7704995B2.

target: Chk1 (Homo sapiens, UniProt O14757); construct: purchased Upstate Biotechnology; assay: Chk1 kinase assay: incorporation of γ-33P ATP into immobilized myelin basic protein; assay type: biochemical; conditions: 10 nM Chk1, 10 μM unlabeled ATP, 1 hour at room temperature; read-out: Chk1 inhibition, IC50
Sequence (O14757 whole entry): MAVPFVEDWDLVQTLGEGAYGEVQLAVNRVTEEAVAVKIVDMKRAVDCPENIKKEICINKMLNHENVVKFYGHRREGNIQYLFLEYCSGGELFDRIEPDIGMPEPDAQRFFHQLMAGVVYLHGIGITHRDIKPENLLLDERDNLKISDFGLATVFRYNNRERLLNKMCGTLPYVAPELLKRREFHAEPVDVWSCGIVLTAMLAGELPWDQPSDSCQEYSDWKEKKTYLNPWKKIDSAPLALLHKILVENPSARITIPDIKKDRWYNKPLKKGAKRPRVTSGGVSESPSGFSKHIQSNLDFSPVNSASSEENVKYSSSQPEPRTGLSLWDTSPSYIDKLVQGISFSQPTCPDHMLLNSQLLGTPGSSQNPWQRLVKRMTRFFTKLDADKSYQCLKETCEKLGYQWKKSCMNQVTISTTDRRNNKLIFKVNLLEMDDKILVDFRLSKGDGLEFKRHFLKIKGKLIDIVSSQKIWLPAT

Smiles Record: NC(=O)c1nc(-c2cccc3ccccc23)cnc1N
IC50: < 50 nM

###

target: Chk1 (Homo sapiens, UniProt O14757); construct: purchased Upstate Biotechnology; assay: Chk1 kinase assay: incorporation of γ-33P ATP into immobilized myelin basic protein; type: biochemical; settings: Table 11; Chk1 only; read-out: Chk1 IC50
pIC50: −log10 of the molar value.
Reported Endpoint: pIC50

Compound: CC(C)(C)OC(=O)N1CCC(CNC(=O)c2nc(-c3cccc(C(=O)NCc4ccccc4)c3)cnc2N)CC1
Tgt: Chk1 (Homo sapiens, UniProt O14757)
Data Value: ≤ 5.00

Compound: CC(C)(C)OC(=O)N1CCC(NC(=O)c2nc(-c3cccc(C(=O)NCc4ccccc4)c3)cnc2N)CC1
Tgt: Chk1 (Homo sapiens, UniProt O14757)
Data Value: ≤ 5.00

Compound: Nc1ncc(-c2cccc(CN[C@H]3CCc4ccccc43)c2)nc1C(=O)NCC(F)(F)F
Tgt: Chk1 (Homo sapiens, UniProt O14757)
Data Value: 5.00 to 6.00

Compound: Nc1ncc(-c2cccc(C(=O)NCc3ccccc3)c2)nc1C(=O)c1cccc(F)c1
Tgt: Chk1 (Homo sapiens, UniProt O14757)
Data Value: ≤ 5.00

Compound: CNC(=O)c1nc(-c2cccc(CNC3CCc4c(F)cc(Br)cc43)c2)cnc1N (stereo not shown)
Tgt: Chk1 (Homo sapiens, UniProt O14757)
Data Value: 6.00 to 7.30

Compound: CNC(=O)c1nc(-c2cccc(CN[C@H]3CCc4cc(Br)ccc4C3)c2)cnc1N
Tgt: Chk1 (Homo sapiens, UniProt O14757)
Data Value: > 7.30

Compound: Nc1ncc(-c2cccc(CN[C@H]3CCc4ccccc43)c2)nc1C(=O)NCCCCCO
Tgt: Chk1 (Homo sapiens, UniProt O14757)
Data Value: 5.00 to 6.00

Compound: Nc1ncc(-c2cccc(C(=O)N[C@@H]3c4ccccc4C[C@@H]3O)c2)nc1C(=O)NC[C@H]1CCNC1
Tgt: Chk1 (Homo sapiens, UniProt O14757)
Data Value: > 7.30

Compound: N=C(NNc1ccccc1)c1nc(-c2cccc(C(=O)NCc3ccccc3)c2)cnc1N
Tgt: Chk1 (Homo sapiens, UniProt O14757)
Data Value: 5.00 to 6.00

Compound: CNC(=O)c1cc(-c2cccc(CNC3CCc4cc(F)cc(F)c43)c2)cnc1N (stereo not shown)
Tgt: Chk1 (Homo sapiens, UniProt O14757)
Data Value: 6.00 to 7.30

Compound: CNC(=O)c1nc(-c2cccc(CNC3CCc4cc(-c5cccs5)ccc43)c2)cnc1N (stereo not shown)
Tgt: Chk1 (Homo sapiens, UniProt O14757)
Data Value: > 7.30

Compound: CC(C)(C)OC(=O)N1CCC[C@@H](NC(=O)c2nc(-c3cccc(C(=O)N[C@@H]4c5ccccc5C[C@@H]4O)c3)cnc2N)C1
Tgt: Chk1 (Homo sapiens, UniProt O14757)
Data Value: ≤ 5.00

Compound: CNC(=O)c1nc(-c2cccc(CNC3Cc4cccc(F)c4C3)c2)cnc1N (stereo not shown)
Tgt: Chk1 (Homo sapiens, UniProt O14757)
Data Value: > 7.30

Compound: Nc1ncc(-c2cccc(CN[C@H]3CCc4ccccc43)c2)nc1-c1cnco1
Tgt: Chk1 (Homo sapiens, UniProt O14757)
Data Value: 5.00 to 6.00

Compound: CC(C)(C)OC(=O)N1CC[C@H](NC(=O)c2nc(-c3cccc(C(=O)NC4Cc5ccccc5C4)c3)cnc2N)C1
Tgt: Chk1 (Homo sapiens, UniProt O14757)
Data Value: 6.00 to 7.30

Compound: CNC(=O)c1nc(-c2cccc(CNC3CC(=O)c4ccccc43)c2)cnc1N (stereo not shown)
Tgt: Chk1 (Homo sapiens, UniProt O14757)
Data Value: 6.00 to 7.30
